# credit: ChEMBL document CHEMBL1136029

Biological target: Steryl-sulfatase (Homo sapiens) (UniProt P08842)
Sequence (whole entry): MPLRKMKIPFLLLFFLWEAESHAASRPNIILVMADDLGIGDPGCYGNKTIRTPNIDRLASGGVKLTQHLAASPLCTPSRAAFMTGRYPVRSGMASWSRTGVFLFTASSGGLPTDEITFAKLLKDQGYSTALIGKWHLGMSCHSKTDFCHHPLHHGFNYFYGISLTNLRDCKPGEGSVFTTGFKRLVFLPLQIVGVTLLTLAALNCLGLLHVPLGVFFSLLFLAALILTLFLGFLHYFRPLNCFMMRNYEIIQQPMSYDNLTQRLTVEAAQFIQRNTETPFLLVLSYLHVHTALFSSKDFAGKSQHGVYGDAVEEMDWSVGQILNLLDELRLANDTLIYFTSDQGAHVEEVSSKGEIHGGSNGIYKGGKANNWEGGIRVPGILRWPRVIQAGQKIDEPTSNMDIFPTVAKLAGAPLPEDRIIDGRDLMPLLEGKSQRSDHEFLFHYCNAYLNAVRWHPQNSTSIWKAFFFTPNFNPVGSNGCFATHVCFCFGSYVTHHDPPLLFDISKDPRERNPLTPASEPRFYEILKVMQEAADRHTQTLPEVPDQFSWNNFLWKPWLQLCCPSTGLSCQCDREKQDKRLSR
Test: Compound was tested for the Inhibitory activity against the Estrone Sulfatase at a concentration of 50 uM
result_type: inhibition (%)

In [3]: df
Out[3]:
                            smiles_text  assay_result
0    CCCCCCCOC(=O)c1ccc(OS(N)(=O)=O)cc1          83.7
1  CCCCCCCCCOC(=O)c1ccc(OS(N)(=O)=O)cc1          76.2
2   CCCCCCCCOC(=O)c1ccc(OS(N)(=O)=O)cc1          80.4
3         CCOC(=O)c1ccc(OS(N)(=O)=O)cc1          63.4
4      CCCCCOC(=O)c1ccc(OS(N)(=O)=O)cc1          86.2
5        CCCOC(=O)c1ccc(OS(N)(=O)=O)cc1          76.9

---

# pIC50 per entry
target: Steryl-sulfatase (Homo sapiens, UniProt P08842); test: Inhibitory activity against Estrone Sulfatase
pIC50: −log10 of the molar value.
result_type: pIC50

>>> df
                             smiles_text                       experimental_system  result_type  assay_result
0      CCCCCCOC(=O)c1ccc(OS(N)(=O)=O)cc1  Steryl-sulfatase (Homo sapiens, UniProt P08842)        pIC50          5.42
1    CCCCCCCCOC(=O)c1ccc(OS(N)(=O)=O)cc1  Steryl-sulfatase (Homo sapiens, UniProt P08842)        pIC50          5.30
2         CCCOC(=O)c1ccc(OS(N)(=O)=O)cc1  Steryl-sulfatase (Homo sapiens, UniProt P08842)        pIC50          4.88
3       CCCCCOC(=O)c1ccc(OS(N)(=O)=O)cc1  Steryl-sulfatase (Homo sapiens, UniProt P08842)        pIC50          5.23
4          CCOC(=O)c1ccc(OS(N)(=O)=O)cc1  Steryl-sulfatase (Homo sapiens, UniProt P08842)        pIC50          4.50
5  CCCCCCCCCCOC(=O)c1ccc(OS(N)(=O)=O)cc1  Steryl-sulfatase (Homo sapiens, UniProt P08842)        pIC50          4.65
6        CCCCOC(=O)c1ccc(OS(N)(=O)=O)cc1  Steryl-sulfatase (Homo sapiens, UniProt P08842)        pIC50          4.98
7     CCCCCCCOC(=O)c1ccc(OS(N)(=O)=O)cc1  Steryl-sulfatase (Homo sapiens, UniProt P08842)        pIC50          5.47
8   CCCCCCCCCOC(=O)c1ccc(OS(N)(=O)=O)cc1  Steryl-sulfatase (Homo sapiens, UniProt P08842)        pIC50          5.32
